Test system: RXF 393 renal
Experiment: NCI tumour cell line growth inhibition, 48 h; in the data active means GI50 below about 0.43 µM; inactive means the rest
Select the correct class. Options are True (active), False (inactive) and nothing else.

Exercise: Kindly provide the recorded test outcome for the following compound: C[C@]12CC[C@@H]3c4ccc(O)cc4CC[C@H]3[C@@H]1CC[C@@H]2NS(=O)(=O)c1cccc(F)c1
Solution: False

Exercise: Would you mind telling me which call this test gave COc1ccc2ncn(-c3cc(O[C@H](C)c4ccccc4Cl)c(C(N)=O)s3)c2c1 ?
Solution: True

Exercise: What outcome does the record of this test show for CCCCC1(CN2CCOCC2)S/C(=N/c2nc(CC(=O)OCC)cs2)NC1=O (centres undefined) ?
Solution: False

Exercise: Record lookup: outcome of this test for COc1ccc2c(O)cc3c(c2c1)[C@H](CCl)CN3C(=O)c1cc2cc(NC(=O)CCN3CCOCC3)ccc2[se]1 ?
Solution: True

Exercise: Write down the call the test reported for this compound. Item: COc1ccc(-c2ccc(/C=N/n3c(C)n[nH]c3=S)o2)c([N+](=O)[O-])c1
Solution: False

Exercise: Lab log entry: COCCOc1cnc2ccn([C@H](C)c3nnc4c(F)cc(-c5cnn(C)c5)cn34)c(=O)c2c1 — outcome as called in the assay?
Solution: False

Exercise: Returns: the outcome recorded for Cn1cc(C2=C(c3cn(CCCCCN)c4ccccc34)C(=O)NC2=O)c2ccccc21 in this assay.
Solution: False

Exercise: Given O=C(Nc1ccc(CO)cc1)c1coc2ccccc2c1=O , state the outcome it received in this test.
Solution: False

Exercise: Tell me the assay call for Oc1cn(-c2ccc(Cl)cc2)nc1-c1n[nH]c(=S)n1C1CCCCC1 please.
Solution: False
